System: HT
Experiment: cells
Type: functional, cell-based, Homo sapiens
Conditions: ht
Description: SANGER: Inhibition of human HT cell growth in a cell viability assay.
Where a SMILES comes first, the peptide text is derived from it. The star is where a group is joined. Cbz = O=C(OCc1ccccc1)*
observation_type: IC50

// CC(C)C[C@@H](C=O)NC(=O)[C@H](CC(C)C)NC(=O)[C@H](CC(C)C)NC(=O)OCc1ccccc1 [MG-132] (Cbz-Leu-Leu-Leu-aldehyde) : IC50 value = > 1000 nM

###

Tested on: NCI-H2342;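 also: growth inhibition of the cancer cell line, determined with a cell viability assay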
Experiment: cells
Type: functional, cell-based
Conditions: Homo sapiens
Description: SANGER: Inhibition of human NCI-H2342 cell growth in a cell viability assay.
Attribute: IC50

Solved entries (count: 5):
// O=C(NCCCNc1nc(Nc2cccc(NC(=O)N3CCCC3)c2)ncc1I)c1cccs1 : IC50 value = > 5 µM

// NC1(c2ccc(-c3nc4ccn5c(=O)[nH]nc5c4cc3-c3ccccc3)cc2)CCC1 : IC50 value = > 4 µM

// CS(=O)(=O)N1CCN(Cc2cc3nc(-c4cccc5[nH]ncc45)nc(N4CCOCC4)c3s2)CC1 : IC50 value = > 4 µM

// O=C1NC(=O)c2c1c(-c1ccccc1Cl)cc1[nH]c3ccc(O)cc3c21 : IC50 value = > 2 µM

// NC(=O)Nc1cc(-c2cccc(F)c2)sc1C(=O)N[C@H]1CCCNC1 : IC50 value = > 2 µM

---
// CCCCCCCCCCCC1=C(O)C(=O)C=C(O)C1=O : IC50 value = 6.99 µM

// Cc1ccc(-n2nc(C(C)(C)C)cc2NC(=O)Nc2ccc(OCCN3CCOCC3)c3ccccc23)cc1 : IC50 value = > 10 µM

###

Attribute: IC50
Tested on: GR-ST
Assay: cells
Assay type: functional, cell-based, Homo sapiens
Settings: Homo sapiens, GR-ST
Description: SANGER: Inhibition of human GR-ST cell growth in a cell viability assay.

Solved entries (count: 3):
// CC1(C)CCC(c2ccc(Cl)cc2)=C(CN2CCN(c3ccc(C(=O)NS(=O)(=O)c4ccc(N[C@H](CCN5CCOCC5)CSc5ccccc5)c(S(=O)(=O)C(F)(F)F)c4)cc3)CC2)C1 : IC50 value = > 2 µM

// Nc1ccccc1NC(=O)c1ccc(CNC(=O)OCc2cccnc2)cc1 : IC50 value = 1.57 µM

// COc1ccc(N(C(=O)Oc2c(C)cccc2C)c2ccnc(Nc3ccc(N4CCN(C)CC4)cc3)n2)c(OC)c1 : IC50 value = > 5.12 µM

Please turn your attention to the following entry.
// Cc1ccc(C(=O)Nc2ccc(CN3CCN(C)CC3)c(C(F)(F)F)c2)cc1C#Cc1cnc2cccnn12 : IC50 value = > 0.512 µM

###

Attribute: pIC50
System: CCRF-CEM;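 also: inhibition of CCRF-CEM cell growth, measured by a cell viability assay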
Experiment: cells
Format: functional, cell-based, Homo sapiens
Conditions: Homo sapiens, CCRF-CEM
Description: SANGER: Inhibition of human CCRF-CEM cell growth in a cell viability assay.
pIC50: −log10 of the molar value.

Solved entries (count: 3):
// OC[C@H](Cc1ccccc1)Nc1nc(Oc2ccc3c(c2)CCC3)nc2c1ncn2Cc1ccc(-c2ccccc2)cc1 : pIC50 value = 5.24

// NC(=O)c1cccc(-c2cc(Nc3ccc(OC(F)(F)F)cc3)ncn2)c1 : pIC50 value = < 5.89

// O=C1NC(=O)c2c1c(-c1ccccc1Cl)cc1[nH]c3ccc(O)cc3c21 : pIC50 value = < 5.70

---
// CS(=O)(=O)N1CCN(Cc2cc3nc(-c4cccc5[nH]ncc45)nc(N4CCOCC4)c3s2)CC1 : pIC50 value = < 5.40

###

Attribute: IC50
System: PA-1;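 also: IC50 for suppression of PA-1 cell proliferation, determined with a cell viability read-out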
Experiment: cells
Format: functional, cell-based
Conditions: Homo sapiens
Description: SANGER: Inhibition of human PA-1 cell growth in a cell viability assay.
Provide the reading as a plain figure in µM.

NC(=O)Nc1cc(-c2cccc(F)c2)sc1C(=O)N[C@H]1CCCNC1 on PA-1 gives IC50 = 0.75

CN(NC(=O)CC(=O)NN(C)C(=S)c1ccccc1)C(=S)c1ccccc1 on PA-1 gives IC50 = 0.00884

Please turn your attention to the following entry.
COc1ccc(-c2cc3nccn3c(Nc3ncccc3C(N)=O)n2)cc1OC on PA-1 gives IC50 = 1.01

###

Test system: L-363
Assay: cells
Type: functional, cell-based, Homo sapiens
Details: Homo sapiens, L-363
Description: SANGER: Inhibition of human L-363 cell growth in a cell viability assay.
observation_type: IC50 (nM)
Provide the reading as a plain figure in nM.

Solved entries (count: 3):
// O=C(NCCCNc1nc(Nc2cccc(NC(=O)N3CCCC3)c2)ncc1I)c1cccs1 : IC50 value = 1180

// CCCCCCCCCCCC1=C(O)C(=O)C=C(O)C1=O : IC50 value = 24100

// COc1cc(N2CCC(N3CCN(C)CC3)CC2)ccc1Nc1ncc(Cl)c(Nc2ccccc2S(=O)(=O)C(C)C)n1 : IC50 value = 824

Please turn your attention to the following entry.
// O=C1NC(=O)c2c1c(-c1ccccc1Cl)cc1[nH]c3ccc(O)cc3c21 : IC50 value = 1530

###

Tested on: C-33-A;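 also: cell viability assay measuring growth inhibition of C-33-A cells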
Assay: cells
Assay type: functional, cell-based
Settings: Homo sapiens
Description: SANGER: Inhibition of human C-33-A cell growth in a cell viability assay.
observation_type: IC50 (nM)
Provide the reading as a plain figure in nM.

Solved entries (count: 2):
// C/C(=C\c1csc(C)n1)[C@@H]1C[C@@H]2O[C@]2(C)CCC[C@H](C)[C@H](O)[C@@H](C)C(=O)C(C)(C)[C@@H](O)CC(=O)O1 : IC50 value = 3.27

// COc1ccc(-c2cc3nccn3c(Nc3ncccc3C(N)=O)n2)cc1OC : IC50 value = 2530

Please turn your attention to the following entry.
// CN(NC(=O)CC(=O)NN(C)C(=S)c1ccccc1)C(=S)c1ccccc1 : IC50 value = 7.58

###

Attribute: pIC50
Test system: COLO-668
Assay: cells
Type: functional, cell-based, Homo sapiens
Conditions: Homo sapiens, COLO-668
Description: SANGER: Inhibition of human COLO-668 cell growth in a cell viability assay.
pIC50: −log10 of the molar value.

Solved entries (count: 2):
OC[C@H](Cc1ccccc1)Nc1nc(Oc2ccc3c(c2)CCC3)nc2c1ncn2Cc1ccc(-c2ccccc2)cc1 on COLO-668 gives pIC50 = < 4.99

CCCCCCCCCCCC1=C(O)C(=O)C=C(O)C1=O [EMBELIN] on COLO-668 gives pIC50 = < 4.49

---
C[C@@H](Oc1cc(-c2cnn(C3CCNCC3)c2)cnc1N)c1c(Cl)ccc(F)c1Cl [CRIZOTINIB] on COLO-668 gives pIC50 = < 5.70

###

Attribute: IC50
Tested on: OVCAR-4
Experiment: cells
Format: functional, cell-based, Homo sapiens
Settings: Homo sapiens, OVCAR-4
Description: SANGER: Inhibition of human OVCAR-4 cell growth in a cell viability assay.
Provide the reading as a plain figure in nM.

// CN(NC(=O)CC(=O)NN(C)C(=S)c1ccccc1)C(=S)c1ccccc1 : IC50 value = 5.87

Please turn your attention to the following entry.
// CCCCCCCCCCCC1=C(O)C(=O)C=C(O)C1=O : IC50 value = 12300

###

Attribute: IC50
Test system: NCI-H526
Test: cells
Assay type: functional, cell-based, Homo sapiens
Details: Homo sapiens, NCI-H526
Description: SANGER: Inhibition of human NCI-H526 cell growth in a cell viability assay.

Solved entries (count: 3):
// CCCCCCCCCCCC1=C(O)C(=O)C=C(O)C1=O : IC50 value = > 32 µM

// NC1(c2ccc(-c3nc4ccn5c(=O)[nH]nc5c4cc3-c3ccccc3)cc2)CCC1 : IC50 value = > 4 µM

// OC[C@H](Cc1ccccc1)Nc1nc(Oc2ccc3c(c2)CCC3)nc2c1ncn2Cc1ccc(-c2ccccc2)cc1 : IC50 value = > 10.2 µM

Please turn your attention to the following entry.
// O=C(NCCCNc1nc(Nc2cccc(NC(=O)N3CCCC3)c2)ncc1I)c1cccs1 : IC50 value = > 5 µM

###

Attribute: IC50
System: A-427;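 also: growth inhibition of human A-427 cells, read out by a cell viability assay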
Assay: cells
Type: functional, cell-based
Details: Homo sapiens
Description: SANGER: Inhibition of human A427 cell growth in a cell viability assay.
Provide the reading as a plain figure in nM.

Solved entries (count: 2):
// CC1(C)CCC(c2ccc(Cl)cc2)=C(CN2CCN(c3ccc(C(=O)NS(=O)(=O)c4ccc(N[C@H](CCN5CCOCC5)CSc5ccccc5)c(S(=O)(=O)C(F)(F)F)c4)cc3)CC2)C1 : IC50 value = 930

// Cc1ccc(C(=O)Nc2ccc(CN3CCN(C)CC3)c(C(F)(F)F)c2)cc1C#Cc1cnc2cccnn12 : IC50 value = 273

Please turn your attention to the following entry.
// C/C(=C\c1csc(C)n1)[C@@H]1C[C@@H]2O[C@]2(C)CCC[C@H](C)[C@H](O)[C@@H](C)C(=O)C(C)(C)[C@@H](O)CC(=O)O1 : IC50 value = 0.828

###

Attribute: pIC50
Test system: A388;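 also: growth inhibition of human A388 cells, read out with a cell viability assay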
Experiment: cells
Format: functional, cell-based
Conditions: Homo sapiens
Description: SANGER: Inhibition of human A388 cell growth in a cell viability assay.
pIC50: −log10 of the molar value.

Solved entries (count: 3):
// Cc1ccc(NC(=O)c2ccc(CN3CCN(C)CC3)cc2)cc1Nc1nccc(-c2cccnc2)n1 : pIC50 value = < 5.70

// Cc1ccc(C(=O)Nc2ccc(CN3CCN(C)CC3)c(C(F)(F)F)c2)cc1C#Cc1cnc2cccnn12 : pIC50 value = < 6.29

// CS(=O)(=O)N1CCN(Cc2cc3nc(-c4cccc5[nH]ncc45)nc(N4CCOCC4)c3s2)CC1 : pIC50 value = < 5.40

---
// NC(=O)c1ccc(N(C(N)=O)c2c(F)cccc2F)nc1-c1ccc(F)cc1F : pIC50 value = < 5.70

// COc1ccc(-c2cc3nccn3c(Nc3ncccc3C(N)=O)n2)cc1OC : pIC50 value = 5.23

// C/C(=C\c1csc(C)n1)[C@@H]1C[C@@H]2O[C@]2(C)CCC[C@H](C)[C@H](O)[C@@H](C)C(=O)C(C)(C)[C@@H](O)CC(=O)O1 : pIC50 value = 9.03

// NC(=O)Nc1cc(-c2cccc(F)c2)sc1C(=O)N[C@H]1CCCNC1 : pIC50 value = < 5.70
